# protocol_text: Single dose study in healthy men, plasma pharmacokinetics
# Assay type: in vivo, human
# measurement_setup: single daily dose of 5 mg and twice daily dose of 4 mg; read-out: plasma level (Cmax)
value_type: Cmax

For the compound CNC(=O)[C@H]1O[C@@H](n2cnc3c(NCc4cccc(I)c4)ncnc32)[C@H](O)[C@@H]1O , what Cmax is on record?
< 160 nM
